Where do these numbers come from? They come from paper PMC6520522.

The compounds listed here are annotated with their log10 of concentration at 72 h.
Assay: Feces levels of TPPU and metabolites after single oral dose in rats
Assay type: in vivo
Settings: male, Sprague Dawley, feces; 72h post dose; rat; single oral dose 10 mg/kg TPPU; n = 3
quantity measured: log10 of concentration at 72 h (log10 of the value in ng/mL)

| compound | log10 of concentration at 72 h |
| --- | --- |
| CC(O)C(=O)N1CCC(NC(=O)Nc2ccc(OC(F)(F)F)cc2)CC1 (centres unmarked) [Compound M1] | 0.64 |
| O=C(O)CC(=O)N1CCC(NC(=O)Nc2ccc(OC(F)(F)F)cc2)CC1 [Compound M4] | 0.32 |
| CCC(=O)N1CCC(NC(=O)Nc2ccc(OC(F)(F)F)cc2)CC1 [TPPU] | 0.18 |
| O=C(Nc1ccc(OC(F)(F)F)cc1)NC1CCN(C(=O)CCO)CC1 [Compound M2] | 1.63 |
| O=C(Nc1ccc(OC(F)(F)F)cc1)NC1CCNCC1 [Compound M3] | 0.23 |

* * *

Assay: Urine levels of TPPU and metabolites after single oral dose in rats
Assay type: in vivo
Conditions: male, Sprague Dawley, 48h post dose, rat, single oral dose 10 mg/kg TPPU, n = 3
// assign Satisfied if concentration at 48 h falls strictly below 2 ng/mL, else Not satisfied (ties count as Not satisfied)

| compound | class name |
| --- | --- |
| O=C(O)CC(=O)N1CCC(NC(=O)Nc2ccc(OC(F)(F)F)cc2)CC1 | Satisfied |
| O=C(Nc1ccc(OC(F)(F)F)cc1)NC1CCN(C(=O)CCO)CC1 | Not satisfied |
| CCC(=O)N1CCC(NC(=O)Nc2ccc(OC(F)(F)F)cc2)CC1 | Not satisfied |
| O=C(Nc1ccc(OC(F)(F)F)cc1)NC1CCNCC1 | Satisfied |
| CC(O)C(=O)N1CCC(NC(=O)Nc2ccc(OC(F)(F)F)cc2)CC1 (centres unmarked) | Not satisfied |

* * *

Experiment: Blood pharmacokinetics of TPPU and its metabolites after single oral dose in rats
Format: in vivo
Conditions: rat blood; single oral dose of TPPU; over 72 h
quantity measured: share of the total TPPU-related exposure in blood

| compound | reported measurement |
| --- | --- |
| O=C(O)CC(=O)N1CCC(NC(=O)Nc2ccc(OC(F)(F)F)cc2)CC1 | < 0.4% |
| O=C(Nc1ccc(OC(F)(F)F)cc1)NC1CCNCC1 | < 0.4% |
| O=C(Nc1ccc(OC(F)(F)F)cc1)NC1CCN(C(=O)CCO)CC1 | < 0.4% |
| CC(O)C(=O)N1CCC(NC(=O)Nc2ccc(OC(F)(F)F)cc2)CC1 (stereo not shown) | ~ 9.6% |

* * *

Test: Feces levels of TPPU and metabolites after single oral dose in rats
Type: in vivo
Conditions: male, Sprague Dawley, feces; rat; single oral dose 10 mg/kg TPPU

| structure string | quantity unit | Cmax |
| --- | --- | --- |
| O=C(O)CC(=O)N1CCC(NC(=O)Nc2ccc(OC(F)(F)F)cc2)CC1 | ng/mL | 22000 |
| CCC(=O)N1CCC(NC(=O)Nc2ccc(OC(F)(F)F)cc2)CC1 | ng/mL | 24000 |
